# Tested on: HEK-293T
# method description: Incucyte cell viability with HEK293T; further: unitless GR value; below 1 slowed growth and below 0 cell loss
# Format: toxicity, cell-based
# recorded conditions: human, 18 h, 10 µM, compound concentration 10 uM, replicate number 2, timepoint 18 hours
Assign Growth Rate to each entry below.

(Q) Enter Growth Rate (test system HEK-293T) for `CCCOc1ccc2[nH]cc(C3=CCNCC3)c2n1.Cl`
(A) 0.95

(Q) Enter Growth Rate (test system HEK-293T) for `CN(C)CCN(Cc1ccc(-c2ccc(CNCCc3ccccc3)cc2)cc1)C(=O)CCC1CCCC1.Cl.Cl`
(A) -0.67

(Q) Enter Growth Rate (test system HEK-293T) for `O=C(NCCO)c1cccc(-c2cc(Nc3ccc(OC(F)(F)F)cc3)ncn2)c1`
(A) 0.17

(Q) Enter Growth Rate (test system HEK-293T) for `Cc1cc(=O)n(C)c2cc(N3C(=O)CC[C@H](NS(=O)(=O)CC(C)C)[C@H]3c3ccc(Cl)cc3)ccc12`
(A) 0.76

(Q) Enter Growth Rate (test system HEK-293T) for `Cn1cc(-c2ccc3occ(-c4cccc(-c5ccncc5)c4)c3n2)cn1`
(A) -0.33

(Q) Enter Growth Rate (test system HEK-293T) for `Cc1cc(Nc2ncc(Cl)c(Nc3ccccc3S(=O)(=O)C(C)C)n2)c(OC(C)C)cc1C1CCNCC1`
(A) -0.48

(Q) Enter Growth Rate (test system HEK-293T) for `CC[C@H]1OC(=O)[C@H](C)[C@@H](O[C@H]2C[C@@](C)(OC)[C@@H](O)[C@H](C)O2)[C@H](C)[C@@H](O[C@@H]2O[C@H](C)C[C@H](N(C)C)[C@H]2O)[C@@]2(C)CC(C)=C(O2)[C@H](C)[C@@H](O)[C@]1(C)O`
(A) 0.75

(Q) Enter Growth Rate (test system HEK-293T) for `CC(C)n1cnc2c(Nc3cccc(Cl)c3)nc(N[C@H]3CCCC[C@@H]3N)nc21`
(A) -0.48

(Q) Enter Growth Rate (test system HEK-293T) for `CCCCCCCCc1ccc(CC[C@](N)(CO)COP(=O)(O)O)cc1`
(A) 0.48

(Q) Enter Growth Rate (test system HEK-293T) for CN(C)C/C=C/C(=O)Nc1ccc(C(=O)N2CCCC(Nc3ncc(Cl)c(-c4c[nH]c5ccccc45)n3)C2)cc1 (stereo unspecified)
(A) -0.43

(Q) Enter Growth Rate (test system HEK-293T) for `CC(C)Oc1ccc(F)c(-c2cnc(N)c(C(=O)Nc3cnccc3N3CCC[C@@H](C(=O)O)C3)n2)c1`
(A) 0.13

(Q) Enter Growth Rate (test system HEK-293T) for `CN[C@@H](C)C(=O)N[C@H]1CCCC[C@H]2CC[C@@H](C(=O)N[C@@H](c3ccccc3)c3cn(CCCCc4ccc(CCCCn5cc([C@@H](NC(=O)[C@@H]6CC[C@@H]7CCCC[C@H](NC(=O)[C@H](C)NC)C(=O)N76)c6ccccc6)nn5)cc4)nn3)N2C1=O`
(A) 0.8

(Q) Enter Growth Rate (test system HEK-293T) for Cl.Clc1cccc(Cl)c1NC1=NCCN1 [CLONIDINE HYDROCHLORIDE]
(A) 0.58

(Q) Enter Growth Rate (test system HEK-293T) for `CCCCCCCCCCCCC/C=C/[C@@H](O)[C@@H](N)COP(=O)([O-])OCC[N+](C)(C)C`
(A) 0.29

(Q) Enter Growth Rate (test system HEK-293T) for `NCCc1cn(S(=O)(=O)c2c(Cl)nc3sccn23)c2ccccc12.O=C(O)C(=O)O`
(A) 0.51

(Q) Enter Growth Rate (test system HEK-293T) for `CC(C)C[C@@H](NC(=O)[C@H](Cc1ccccc1)NC(=O)CNC(=O)[C@@H](C)NC(=O)[C@@H](N)Cc1ccc(O)cc1)C(=O)O`
(A) 1

(Q) Enter Growth Rate (test system HEK-293T) for `Nc1ncnc2c1ncn2[C@@H]1O[C@H](CO)[C@@H](O)[C@H]1O`
(A) 0.98

(Q) Enter Growth Rate (test system HEK-293T) for `CS(=O)(=O)c1ccc(C(=O)Nc2ccc(Cl)c(-c3ccccn3)c2)c(Cl)c1`
(A) 0.92

(Q) Enter Growth Rate (test system HEK-293T) for C[C@@H](O[C@H]1OCCN(Cc2n[nH]c(=O)[nH]2)[C@H]1c1ccc(F)cc1)c1cc(C(F)(F)F)cc(C(F)(F)F)c1 [APREPITANT]
(A) 0.84

(Q) Enter Growth Rate (test system HEK-293T) for O=C(O)CCC/C=C\CC1C(O)CC(O)C1/C=C/C(O)COc1cccc(Cl)c1 (stereo unspecified)
(A) 0.99

(Q) Enter Growth Rate (test system HEK-293T) for `CC(C)COc1ccc(CNC(=O)N(Cc2ccc(F)cc2)C2CCN(C)CC2)cc1`
(A) 0.1

(Q) Enter Growth Rate (test system HEK-293T) for `COc1cc(NC(=O)CCN2CCC(OC(=O)Nc3ccccc3-c3ccccc3)CC2)c(Cl)cc1CNC[C@H](O)c1ccc(O)c2[nH]c(=O)ccc12`
(A) 1

(Q) Enter Growth Rate (test system HEK-293T) for `Br.Br.N=C(N)NCCSC(=N)N`
(A) 0.92

(Q) Enter Growth Rate (test system HEK-293T) for `CN(c1ncccc1CNc1ccnc(-c2nc3c(F)c(Cl)ccc3[nH]2)n1)S(C)(=O)=O`
(A) 0.99

(Q) Enter Growth Rate (test system HEK-293T) for CC(C)NCC(O)COc1cccc2[nH]ccc12 (stereo unspecified)
(A) 0.94

(Q) Enter Growth Rate (test system HEK-293T) for `CC(=O)NCC(=O)N1[C@@H]2CC[C@H]1c1ccc(Nc3ncc(C(F)(F)F)c(NC4CCC4)n3)cc12`
(A) -0.48

(Q) Enter Growth Rate (test system HEK-293T) for COc1cc2nc(N3CCN(C(=O)C4CCCO4)CC3)nc(N)c2cc1OC.Cl.O.O (stereo unspecified) [TERAZOSIN HYDROCHLORIDE]
(A) 0.79

(Q) Enter Growth Rate (test system HEK-293T) for `CC(C)CC(=O)Nc1cncc(-c2ccc3[nH]nc(-c4nc5c(-c6cccc(F)c6)cncc5[nH]4)c3c2)c1`
(A) -0.64

(Q) Enter Growth Rate (test system HEK-293T) for `Cc1cccc(NC(=O)CN2CCC(c3ccccn3)CC2)c1.Cl.Cl`
(A) 0.98

(Q) Enter Growth Rate (test system HEK-293T) for CN(C)[C@H]1CN(C2CCc3cccc(F)c32)C[C@@H]1c1ccc(N2CCN(S(C)(=O)=O)CC2)cc1 (stereo partly specified)
(A) 0.89

(Q) Enter Growth Rate (test system HEK-293T) for `CC1(COc2ccc3c(c2)ncn3-c2ccc3cccc(N4CCC(N)CC4)c3n2)COC1`
(A) -0.21
